Target: T1, cynomolgus monkey CGRP receptor (cynomolgus monkey, UniProt A0A2K5VQ71 34-472)
T1 construct: whole, on cells; Presented as detergent-solubilized lysate of HEK cells expressing the cynomolgus receptor; also called Cyno CGRP Receptor; Cynomolgus Monkey CGRP Receptor/HEK detergent-solubilized cell lysate
T1 sequence (A0A2K5VQ71 entry or part of it): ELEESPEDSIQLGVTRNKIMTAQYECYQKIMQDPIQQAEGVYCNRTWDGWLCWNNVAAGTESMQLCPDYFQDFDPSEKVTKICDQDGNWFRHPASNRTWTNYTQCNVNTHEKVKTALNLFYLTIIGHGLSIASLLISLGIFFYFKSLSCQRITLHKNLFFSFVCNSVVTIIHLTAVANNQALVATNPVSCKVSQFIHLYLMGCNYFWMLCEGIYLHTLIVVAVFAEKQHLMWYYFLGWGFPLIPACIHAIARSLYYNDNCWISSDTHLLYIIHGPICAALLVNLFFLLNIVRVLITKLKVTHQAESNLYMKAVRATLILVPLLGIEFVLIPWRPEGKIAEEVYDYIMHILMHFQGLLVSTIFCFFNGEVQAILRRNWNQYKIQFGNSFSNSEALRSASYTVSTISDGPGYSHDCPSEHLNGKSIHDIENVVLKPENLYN
Assay: yeast-displayed Fab, FACS, detergent-solubilized lysate of cynomolgus CGRP receptor/HEK cells vs blank cells
Recorded Mutant vs. 4E4.2 Parent Specific Binding Ratio for the following binders
I only need the number, in fold, no unit after it.

Take a look at these entries with their results.
{"binder": "anti-CGRP receptor variant 15, yeast-displayed Fab (Fab, V domains shown, also called Variant Ab ID 15) VH: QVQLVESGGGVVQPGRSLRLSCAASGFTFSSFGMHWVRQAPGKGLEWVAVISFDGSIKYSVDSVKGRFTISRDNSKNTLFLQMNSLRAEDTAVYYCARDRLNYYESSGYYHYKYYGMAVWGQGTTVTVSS VL: QSVLTQPPSVSAAPGQKVTISCSGSSSNIGNNYVSWYQQLPGTAPKLLIYDNNKRPSGIPDRFSGSKSGTSATLGITGLQTGDEADYYCGTWDWWRKAVIFGGGTKLTVLG", "unit info": "fold", "measured": 2.2}
{"binder": "anti-CGRP receptor variant 08, yeast-displayed Fab (Fab, V domains shown, also called Variant Ab ID 08) VH: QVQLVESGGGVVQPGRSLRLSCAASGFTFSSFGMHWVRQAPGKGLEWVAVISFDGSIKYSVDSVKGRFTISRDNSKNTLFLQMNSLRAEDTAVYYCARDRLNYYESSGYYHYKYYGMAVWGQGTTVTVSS VL: QSVLTQPPSVSAAPGQKVTISCSGSYSNIGWWPVSWYQQLPGTAPKLLIYDNNKRPSGIPDRFSGSKSGTSATLGITGLQTGDEADYYCGTWDSRLSAVVFGGGTKLTVLG", "unit info": "fold", "measured": 2.5}
{"binder": "anti-CGRP receptor variant 07, yeast-displayed Fab (Fab, V domains shown, also called Variant Ab ID 07) VH: QVQLVESGGGVVQPGRSLRLSCAASGFYFMTYGMHWVRQAPGKGLEWVAVISFDGSIKYSVDSVKGRFTISRDNSKNTLFLQMNSLRAEDTAVYYCARDRLNYYESSGYYHYKYYGMAVWGQGTTVTVSS VL: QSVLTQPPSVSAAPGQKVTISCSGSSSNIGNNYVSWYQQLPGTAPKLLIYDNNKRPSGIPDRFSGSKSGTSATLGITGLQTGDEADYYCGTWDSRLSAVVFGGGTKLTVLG", "unit info": "fold", "measured": 1.6}
{"binder": "anti-CGRP receptor variant 09, yeast-displayed Fab (Fab, V domains shown, also called Variant Ab ID 09) VH: QVQLVESGGGVVQPGRSLRLSCAASGFTFSSFGMHWVRQAPGKGLEWVAVISFAGEIDYYVDSVKGRFTISRDNSKNTLFLQMNSLRAEDTAVYYCARDRLNYYESSGYYHYKYYGMAVWGQGTTVTVSS VL: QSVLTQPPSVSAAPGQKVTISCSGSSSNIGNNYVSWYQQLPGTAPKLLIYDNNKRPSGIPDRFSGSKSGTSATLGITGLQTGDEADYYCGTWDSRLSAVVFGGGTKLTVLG", "unit info": "fold", "measured": 1.2}
{"binder": "anti-CGRP receptor variant 02, yeast-displayed Fab (Fab, V domains shown, also called Variant Ab ID 02) VH: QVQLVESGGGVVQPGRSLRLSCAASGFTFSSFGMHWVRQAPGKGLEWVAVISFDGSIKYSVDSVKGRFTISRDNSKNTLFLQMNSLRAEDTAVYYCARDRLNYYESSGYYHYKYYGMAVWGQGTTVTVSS VL: QSVLTQPPSVSAAPGQKVTISCSGSRSNIGIKAVSWYQQLPGTAPKLLIYDNNKRPSGIPDRFSGSKSGTSATLGITGLQTGDEADYYCGTWDSRLSAVVFGGGTKLTVLG", "unit info": "fold", "measured": 2.8}

Problem: Give its Mutant vs. 4E4.2 Parent Specific Binding Ratio value. Item: anti-CGRP receptor variant 14, yeast-displayed Fab (Fab, V domains shown, also called Variant Ab ID 14) VH: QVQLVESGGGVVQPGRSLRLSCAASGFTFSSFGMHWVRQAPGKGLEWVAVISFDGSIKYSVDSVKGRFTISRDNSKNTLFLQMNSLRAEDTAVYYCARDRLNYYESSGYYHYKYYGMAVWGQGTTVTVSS VL: QSVLTQPPSVSAAPGQKVTISCSGSSSNIGNNYVSWYQQLPGTAPKLLIYDNNKRPSGIPDRFSGSKSGTSATLGITGLQTGDEADYYCGTWDSWHRVVTFGGGTKLTVLG
Solution: 1.1

Problem: Give its Mutant vs. 4E4.2 Parent Specific Binding Ratio value. Item: 4E4.2 parental Fab, yeast-displayed (Fab, V domains shown, also called parental 4E4.2 Fab) VH: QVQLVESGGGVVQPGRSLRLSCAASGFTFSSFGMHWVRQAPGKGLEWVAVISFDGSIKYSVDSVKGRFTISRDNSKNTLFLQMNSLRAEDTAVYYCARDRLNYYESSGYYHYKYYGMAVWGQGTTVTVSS VL: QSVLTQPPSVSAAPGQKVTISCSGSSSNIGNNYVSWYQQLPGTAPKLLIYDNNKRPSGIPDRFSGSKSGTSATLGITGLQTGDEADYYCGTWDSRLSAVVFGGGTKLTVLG
Solution: 1

Problem: Give its Mutant vs. 4E4.2 Parent Specific Binding Ratio value. Item: anti-CGRP receptor variant 05, yeast-displayed Fab (Fab, V domains shown, also called Variant Ab ID 05) VH: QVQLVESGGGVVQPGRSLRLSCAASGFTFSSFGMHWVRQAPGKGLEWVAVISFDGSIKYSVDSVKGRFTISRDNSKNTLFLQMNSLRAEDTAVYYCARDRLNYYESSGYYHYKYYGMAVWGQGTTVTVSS VL: QSVLTQPPSVSAAPGQKVTISCSGSFSNIGRSTVSWYQQLPGTAPKLLIYDNRWRAGGIPDRFSGSKSGTSATLGITGLQTGDEADYYCGTWDYQWKAVVFGGGTKLTVLG
Solution: 2.7

Problem: Give its Mutant vs. 4E4.2 Parent Specific Binding Ratio value. Item: anti-CGRP receptor variant 13, yeast-displayed Fab (Fab, V domains shown, also called Variant Ab ID 13) VH: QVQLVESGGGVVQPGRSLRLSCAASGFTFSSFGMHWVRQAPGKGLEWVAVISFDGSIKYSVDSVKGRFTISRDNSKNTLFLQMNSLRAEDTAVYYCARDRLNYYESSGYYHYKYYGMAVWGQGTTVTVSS VL: QSVLTQPPSVSAAPGQKVTISCSGSRSNIGRRTVSWYQQLPGTAPKLLIYDNNKRPSGIPDRFSGSKSGTSATLGITGLQTGDEADYYCGTWDSRLSAVVFGGGTKLTVLG
Solution: 2.5

Problem: Give its Mutant vs. 4E4.2 Parent Specific Binding Ratio value. Item: anti-CGRP receptor variant 11, yeast-displayed Fab (Fab, V domains shown, also called Variant Ab ID 11) VH: QVQLVESGGGVVQPGRSLRLSCAASGFWFDTFGMHWVRQAPGKGLEWVAVISFAGEDTHYVDSVKGRFTISRDNSKNTLFLQMNSLRAEDTAVYYCARDRLNYYESYGYYGYHYYGMAVWGQGTTVTVSS VL: QSVLTQPPSVSAAPGQKVTISCSGSRSNIGRYSVSWYQQLPGTAPKLLIYENMFRPRGIPDRFSGSKSGTSATLGITGLQTGDEADYYCGTWDYRMQAVVFGGGTKLTVLG
Solution: 2.8

Problem: Give its Mutant vs. 4E4.2 Parent Specific Binding Ratio value. Item: anti-CGRP receptor variant 04, yeast-displayed Fab (Fab, V domains shown, also called Variant Ab ID 04) VH: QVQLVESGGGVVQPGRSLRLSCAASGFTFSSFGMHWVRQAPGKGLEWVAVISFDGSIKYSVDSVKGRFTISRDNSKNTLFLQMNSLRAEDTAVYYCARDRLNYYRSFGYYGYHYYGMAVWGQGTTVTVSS VL: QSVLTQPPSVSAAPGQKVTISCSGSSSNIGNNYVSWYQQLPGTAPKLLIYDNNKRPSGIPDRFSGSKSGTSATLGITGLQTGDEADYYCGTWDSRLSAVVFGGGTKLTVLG
Solution: 1.6
